# measuredOn: IDO1 (Homo sapiens, UniProt P14902)
# Construct: HeLa cells were treated with a test compound in the presence of IFNγ, which induces IDO1 expression
# Sequence (P14902 whole entry): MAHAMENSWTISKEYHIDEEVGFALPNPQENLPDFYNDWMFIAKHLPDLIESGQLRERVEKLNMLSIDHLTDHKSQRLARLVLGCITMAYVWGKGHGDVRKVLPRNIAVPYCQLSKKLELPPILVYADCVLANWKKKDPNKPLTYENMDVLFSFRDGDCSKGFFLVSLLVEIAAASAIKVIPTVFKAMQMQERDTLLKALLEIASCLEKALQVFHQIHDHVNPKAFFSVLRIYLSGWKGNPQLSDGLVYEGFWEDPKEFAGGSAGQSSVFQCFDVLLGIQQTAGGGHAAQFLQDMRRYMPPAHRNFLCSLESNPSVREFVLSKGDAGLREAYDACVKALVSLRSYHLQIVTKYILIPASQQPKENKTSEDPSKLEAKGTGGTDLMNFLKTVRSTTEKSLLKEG
# assayComment: Cell-Based (HeLa) Assay for Measurement of IDO1 Inhibition
# protocolConditions: H1-HeLa cells, IDO1 induced by IFNγ, 48 hour incubation, kynurenine in supernatant (absorbance at 480 nm); geometric mean of a minimum of four determinations
measurementKind: EC50 (µM)
Your answer is read as µM, so omit the unit and give the number.

## Input EC50 for Cc1ncc(-c2cccn3c(C4CCOC4)ncc23)cc1C(=O)Nc1ccc(F)cc1 (stereo not shown) [Example 76] ?
## Output 5
